Molecular target: Interleukin-1 receptor-like 1 (Homo sapiens)
Assay: inhibitors of human ST2 (IL1RL1) binding to IL-33, primary screen, biochemical, AlphaLISA (AID 1259354)
Conditions: AlphaLISA ST2-Fc/biotin-IL-33 interaction, 1 h; at 17 µM
About 1,800 (2.3%) of roughly 78,000 compounds were called active. Inconclusive results (about 27%) are left out. Cut-off read from the data, not from the text of the source: active = inhibition above about 30%; inconclusive = mostly about 10% to 28%; inactive = weaker than that. For the sample, actives were picked, then their nearest neighbours and some compounds at random.
Pick from yes (1) for active, no (0) for inactive when you respond.

>>> assigned_label("CS(=O)(=O)n1nnc2ccccc21")
"no (0)"

Exercise: I would be grateful if you could indicate the recorded call for COC(=O)c1nc2n(n1)C(c1ccc(F)cc1)C1=C(CCCC1=O)N2 (centres undefined) .
Solution: no (0)

Exercise: I would be grateful if you could indicate the recorded call for COc1ccc(N2CCN(Cc3nc4c(c(=O)[nH]c(=O)n4C)n3CCCO)CC2)cc1 .
Solution: no (0)

Exercise: I would be grateful if you could indicate the recorded call for N#C/C(=C/c1ccc2c(c1)OCO2)c1nc(-c2cccc(Br)c2)cs1 .
Solution: yes (1)

Exercise: I would be grateful if you could indicate the recorded call for Cc1cc2oc(=O)cc(CN(C)C(C)c3ccon3)c2cc1C (centres undefined) .
Solution: no (0)

Exercise: I would be grateful if you could indicate the recorded call for COc1ccc(Nc2ccn(-c3nc(-c4ccccc4)oc3-c3ccccc3)c(=O)n2)cc1 .
Solution: no (0)

Exercise: I would be grateful if you could indicate the recorded call for CCc1c(-c2ccccc2)nc2ccccc2c1C(=O)NCC1CCCO1 (centres undefined) .
Solution: no (0)

Exercise: I would be grateful if you could indicate the recorded call for O=C(CN1C(=O)/C(=C\c2ccc(C(F)(F)F)cc2)Sc2ccccc21)NCC1CCCO1 (centres undefined) .
Solution: yes (1)

Exercise: I would be grateful if you could indicate the recorded call for CCCc1nc(CN(C)C(=O)c2c(O)cccc2O)no1 .
Solution: no (0)

Exercise: I would be grateful if you could indicate the recorded call for COc1ccc(N2CCN(Cc3ccc(Br)s3)CC2)cc1 .
Solution: yes (1)
